# system: T1, human PD-L1-His (Sino Biological, Cat #10084-H08H) (human, UniProt Q9NZQ7 19-238)
# T1 construct: Bought protein; also called human PD-L1 ECD-His; recombinant human PD-L1-His protein; not shown: His tag
# T1 sequence (Q9NZQ7 19-238): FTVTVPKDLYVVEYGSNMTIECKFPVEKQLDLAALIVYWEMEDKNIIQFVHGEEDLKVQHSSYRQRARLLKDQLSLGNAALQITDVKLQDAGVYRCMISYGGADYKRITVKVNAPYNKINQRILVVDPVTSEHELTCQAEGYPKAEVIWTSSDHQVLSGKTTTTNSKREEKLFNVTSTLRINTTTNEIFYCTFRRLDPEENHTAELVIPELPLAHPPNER
# experimental.protocol: BLI (Gator), antibody on HFC probe, human PD-L1-His in solution
Listed binders paired with reported koff
Please reply with the bare figure in s⁻¹ and do not write the unit itself.

// solved cases for koff follow
[
  {
    "binder": "74A9 (antibody, human IgG1, V domains shown) VH: QSVEESGGRLVTPGTPLTLTCAVSGFSLSTYALGWVRQAPGKGLEWIGSISIGGATYYASWAKGRFTISKTSTTVDLKIASPTTEDTATYFCARNVDSIYLDAFHTWGPGTLVTVSL VL: DIVMTQTPASVEAAVGGTVTIKCQASQNIYNNLAWYQQKPGQPPKLLIYRASTLASGVPSRFKGSGSGTEYTLTISDLECDDAATYYCQTYYLTTTTNAFGGGTEVVVK",
    "reported": 0.000234
  },
  {
    "binder": "62E6 (antibody, human IgG1, V domains shown) VH: QEQLEESGGDLVKPEGSLTLTCTASGFSFSGDYYMSWVRQAPGKGLEWIASIYTGSLNIYYATWAKGRFTISLTSSTTVTLQMTSLTAADTATYFCARRNKNADYGHFDLWGPGTLVTVSS VL: YDMTQTPASVEVAVGGTVTIKCQASQSINDRLAWYQQKPRQPPKLLIYGASTLASGVPSRFKGSGSGTEFTLTISDLECVDAATYYCQQGWTVSSLDNAFGGGTEVVAK",
    "reported": 0.000342
  }
]

// koff lookup, key: 33E8 (antibody, human IgG1, V domains shown) VH: QSLEESGGDLVKPGASLTLTCTASGFYFSSGYDMSWVRQAPGKGLEWIASIFTTSGSTWYANWAKGRFTISKTSSTTVTLQMTSLTDADTATYFCTKDGVGSFYMNLWGPGTLVTVSS VL: LVMTQTPASVEVAVGGTVTIKCQASQTIGSNLAWYQQRPGQPPKLLIYKAFTLASGVSSRFKGSGSGTQFTLTISGVECADAATYYCQQGATRINIDNAFGGGTEVVVK 0.000418
